IC50 values by entry
Tested on: influenza A/FM/1/47(H1N1)
Test: microbe, parasite or virus in culture
Format: cell-based, influenza A virus
Settings: Influenza A virus, H1N1, MDCK
reported metric: IC50

{"columns": ["compound", "target system", "result"],
 "data": [
  ["CC(=O)OC[C@H]1O[C@@H](Oc2cccc(F)c2C)[C@H](OC(C)=O)[C@@H](OC(C)=O)[C@H]1OC(C)=O [Compound 10b]", "influenza A/FM/1/47(H1N1)", "> 52.2 µM"],
  ["COC(=O)c1ccc(F)c(O)c1 [Compound 1, Methyl 4-fluoro-3-hydroxybenzoate]", "influenza A/FM/1/47(H1N1)", "> 392 µM"],
  ["CC(=O)OC[C@H]1O[C@@H](Oc2cccc(F)c2C)[C@H](OC(C)=O)[C@@H](OC(C)=O)[C@@H]1OC(C)=O [Compound 10a]", "influenza A/FM/1/47(H1N1)", "> 146 µM"],
  ["OCc1ccc(O[C@@H]2O[C@H](CO)[C@@H](O)[C@H](O)[C@H]2O)cc1", "influenza A/FM/1/47(H1N1)", "> 232 µM"],
  ["COC(=O)c1cccc(O[C@@H]2O[C@H](COC(C)=O)[C@H](OC(C)=O)[C@H](OC(C)=O)[C@H]2OC(C)=O)c1", "influenza A/FM/1/47(H1N1)", "> 138 µM"],
  ["OCc1ccc(F)c(O[C@@H]2O[C@H](CO)[C@@H](O)[C@H](O)[C@H]2O)c1 [Compound 14a]", "influenza A/FM/1/47(H1N1)", "> 657 µM"]
]}
